target: κ opioid receptor (KOR) (Homo sapiens, UniProt P41145); experiment: Radioligand competition binding, KOR ([3H]-U69593), HEK293 cell homogenates; conditions: read-out: KOR % (percent inhibition), at 10,000 nM; [3H]-U69593
Listed below: inhibition at 10 µM values for each entry.
# unit: % | format: bare number

C[C@H]1N=C(c2ccccc2F)c2cc(C3CC3)ccc2-n2cnc(C(=O)N(C)C)c21 | 68
C#Cc1ccc2c(c1)C(c1ccccc1F)=N[C@@H](C)c1c(C(=O)OC)ncn1-2 | 93
C#Cc1ccc2c(c1)C(c1ccccc1F)=N[C@H](C)c1c(C(=O)OC)ncn1-2 | 76
C#Cc1ccc2c(c1)C(c1ccccc1F)=N[C@H](C)c1c(C(=O)NC3CC3)ncn1-2 | 81
C[C@H]1N=C(c2ccccn2)c2cc(Br)ccc2-n2cnc(C(=O)O)c21 | 11

Entry `Brc1ccc2c(c1)C(c1ccccn1)=NCc1c(-c3cnco3)ncn1-2` ; inhibition at 10 µM = 62

Looking up `C#Cc1ccc2c(c1)C(c1ccccn1)=NCc1c(C(=O)OC)ncn1-2` , I see its inhibition at 10 µM listed as 43

// field: inhibition at 10 µM; key: `C#Cc1ccc2c(c1)C(c1ccccc1F)=N[C@H](C)c1c(C(=O)NC)ncn1-2` ; value = 80
